Parameter autophagy induction: see the listing below.
- Tested on: U2OS
- assayOverview: Here: values are normalized to the negative (DMSO; defined as 0% autophagy induction) and positive (250nM Torin1; mTOR inhibitor; defined as maximal inducer of autophagy = 100%) control compounds and represented as % of autophagy induction. […] The impact of autophagy induction on cells is complex and depends on the affected target. As such, the magnitude of a phenotype may not be equally mirrored in the %-value of autophagy induction and vice versa. The dynamics of the induction may indicate the mode of activation: e.g. activation via phosphorylation or a signaling cascade may occur fast, while activation via transcription factors may take considerably longer. […] Of note, treatment concentrations may be sub-optimal for specific compounds, leading to false negative annotations.
- Assay type: functional, Homo sapiens
- reportedConditions: Compound Concentration 2 uM, Timepoint 12 hours, Culturing Media DMEM, 1 % Penicillin/Streptomycin, 10% Fetal bovin serum Add-On: No, Screening Media Control DMEM, Screening Media Samples DMEM
experimentalEndpoint: autophagy induction

INSERT INTO measurements (compound, targetentity, reportedresult) VALUES
  ('c1cc(CN2CCCNCCNCCCNCC2)ccc1CN1CCCNCCNCCCNCC1', 'U2OS', '-1.895%'),
  ('CC(C)Oc1ccccc1C(=O)Nc1ccccc1C(=O)Nc1cccc(S(=O)(=O)C(F)(F)F)c1', 'U2OS', '8.776%'),
  ('C[C@]1(C(=O)N(CCCC(=O)O)Cc2cccc(Cl)c2)CCN1C(=O)c1csc2ccccc12', 'U2OS', '5.8948%'),
  ('COc1ccc(Br)cc1S(=O)(=O)NC(=O)/C=C/c1ccccc1Cc1ccc2ccccc2c1', 'U2OS', '-1.7757%'),
  ('Cl.Clc1ccc(CCCOCCCN2CCCCC2)cc1 [PITOLISANT HYDROCHLORIDE]', 'U2OS', '-2.233%'),
  ('Cl.Clc1cccc(COc2cncc(N3CCNCC3)n2)c1', 'U2OS', '2.459%'),
  ('N#Cc1cccc(C(=O)Nc2cc(-c3ccccc3)nn2-c2ccccc2)c1', 'U2OS', '0.2801%'),
  ('CCCCN(CC)c1nc(C)nc2c1c(C)cn2-c1c(C)cc(C)cc1C.Cl', 'U2OS', '3.96%'),
  ('CCC[C@H](Oc1cc(C)c(-n2cc(C(F)(F)F)cn2)c(C)c1)c1ccc(C(=O)NCCC(=O)O)cc1', 'U2OS', '-4.845%'),
  ('COc1cccc(-c2c(C)n(Cc3c(F)cccc3C(F)(F)F)c(=O)n(C[C@H](NCCCC(=O)[O-])c3ccccc3)c2=O)c1F.[Na+] [ELAGOLIX SODIUM]', 'U2OS', '-6.63%'),
  ('COc1ccc(S(=O)(=O)c2cc(OC)ccc2S(=O)(=O)c2ccc([C@H](C)NS(C)(=O)=O)cc2)cc1', 'U2OS', '2.687%'),
  ('O=C(O)C1CN(Cc2ccc(OCc3ccc(Cl)c(Cl)c3)cc2)C1', 'U2OS', '2.871%'),
  ('COc1ccc(C2(O)OC(=O)C(c3ccc4c(c3)OCO4)=C2Cc2cc(OC)c(OC)c(OC)c2)cc1 (stereo not given)', 'U2OS', '-2.496%'),
  ('CC(C)NC(=O)c1ccc(C#Cc2ccncc2)cn1', 'U2OS', '-10.7877%'),
  ('CCCCN(CCCC)C(=O)CN1C[C@@H](c2ccc3c(c2)OCO3)[C@H](C(=O)O)[C@H]1c1ccc(OC)cc1', 'U2OS', '-9.274%'),
  ('CCc1cc(C(C)=O)c(O)cc1OCCCCCC(C)(C)c1nn[nH]n1', 'U2OS', '7.835%'),
  ('CN1CCCC(n2nc(Cc3ccc(Cl)cc3)c3ccccc3c2=O)CC1.Cl (stereo not given) [AZELASTINE HYDROCHLORIDE]', 'U2OS', '-6.53%'),
  ('O=C(O)CC/C=C\C[C@@H]1CO[C@H](c2ccccc2Cl)O[C@@H]1c1ccccc1O', 'U2OS', '-0.3574%'),
  ('FC(F)(F)c1c(N2CCC(c3ccccc3)CC2)ccn2c(CC3CC3)nnc12', 'U2OS', '-2.443%'),
  ('CCCNS(=O)(=O)Nc1ncnc(OCCOc2ncc(Br)cn2)c1-c1ccc(Br)cc1', 'U2OS', '-0.4685%'),
  ('COc1ccc(CNC(=O)c2cc(-c3cncc(Cl)c3)cnc2-c2ccccn2)nc1OC', 'U2OS', '5.723%'),
  ('Cc1c(OCc2cccc(-c3ccc(C(=O)O)cc3)c2)cc2c(c1C)C(=O)C(C1CCCC1)C2 (stereo not given)', 'U2OS', '3.182%'),
  ('CN(C(=O)Cc1ccc(Cl)c(Cl)c1)C(CN1CCCC1)c1cccc(OCC(=O)O)c1.Cl (stereo not given)', 'U2OS', '-9.267%'),
  ('CCCCC#Cc1nc(NC)c2ncn([C@@H]3O[C@H](CO)[C@@H](O)[C@H]3O)c2n1', 'U2OS', '3.199%'),
  ('Cc1nnn(-c2ccc(-c3ccc(C4(C(=O)O)CC4)cc3)cc2)c1NC(=O)O[C@H](C)c1ccccc1', 'U2OS', '3.283%'),
  ('COc1cc(-n2cnc3cc(-c4ccc(Cl)cc4)sc3c2=O)ccc1OCCN1CCCC1', 'U2OS', '0.09165%'),
  ('COc1ccc(NS(=O)(=O)c2sc3ccc(Cl)cc3c2C)cc1N1CCNCC1.Cl', 'U2OS', '6.036%'),
  ('Cc1nc(C(=O)N2CCC[C@H]2Cc2nnc(-c3ccccc3)o2)c(-c2ccccc2F)s1', 'U2OS', '0.7749%'),
  ('Cc1cc([C@@H](C)Nc2cccc(-c3cc(C)c(C(=O)N[C@@H](C)C(=O)O)c(C)c3)c2)ccc1Cl', 'U2OS', '0.7384%'),
  ('Cc1c(C2=CCN(C(=O)N(C)C(C)C)CC2)nnn1-c1cccnc1F', 'U2OS', '-1.633%'),
  ('Cc1nc(C#Cc2ccnc(Cl)c2)c(C)n1-c1ccc(OC(F)(F)F)cc1', 'U2OS', '7.139%'),
  ('CS(=O)(=O)NC[C@H]1CC[C@H](Nc2nc3c(s2)CCSc2ccccc2-3)CC1', 'U2OS', '-10.1359%'),
  ('O=C(O)COc1cccc(CN(Cc2ccc(-n3cccn3)cc2)S(=O)(=O)c2cccnc2)c1', 'U2OS', '12.9626%'),
  ('CCCCCNC(=O)NS(=O)(=O)c1cc([N+](=O)[O-])ccc1NC1CCCCC1', 'U2OS', '-2.891%'),
  ('C/C(=N\NC(=O)[C@@H]1C(=O)NC[C@H]1c1ccccc1)c1cccc(Br)c1', 'U2OS', '-6.368%');

* * *

# autophagy induction per record follows
- Tested on: TERT-RPE1
- assayOverview: Here: values are normalized to the negative (DMSO; defined as 0% autophagy induction) and positive (250nM Torin1; mTOR inhibitor; defined as maximal inducer of autophagy = 100%) control compounds and represented as % of autophagy induction. […] The impact of autophagy induction on cells is complex and depends on the affected target. As such, the magnitude of a phenotype may not be equally mirrored in the %-value of autophagy induction and vice versa. The dynamics of the induction may indicate the mode of activation: e.g. activation via phosphorylation or a signaling cascade may occur fast, while activation via transcription factors may take considerably longer. […] Of note, treatment concentrations may be sub-optimal for specific compounds, leading to false negative annotations.
- Type: functional, Homo sapiens
- reportedConditions: Compound Concentration 1 uM, Timepoint 12 hours, Culturing Media DMEM/F12 (1:1), 1 % Penicillin/Streptomycin, 10% Fetal bovin serum Add-On: No, Screening Media Control DMEM/F12 (1:1), Screening Media Samples DMEM/F12 (1:1)
experimentalEndpoint: autophagy induction (%)

INSERT INTO results (compound, unitsymbol, reportedresult) VALUES
  ('CSc1ccc(C(=O)/C=C/c2cc(C)c(OC(C)(C)C(=O)O)c(C)c2)cc1', '%', -15.4717),
  ('CC(C)c1c(CN(C)C(C)Cc2ccccc2)n(C)n(-c2ccccc2)c1=O (centres undefined)', '%', -9.526),
  ('Cn1cc(C(=O)O)c2ccc(N3CCC(OCc4c(-c5c(Cl)cccc5Cl)noc4C4CC4)CC3)cc21', '%', -2.759),
  ('C=C1/C(=C\C=C2/CCC[C@]3(C)[C@@H]([C@H](C)CCCC(C)(C)O)CC[C@@H]23)C[C@@H](O)C[C@@H]1O', '%', 36.7455),
  ('Cc1nc(-c2ccc(C(F)(F)F)cc2)sc1C(=O)NCc1ccc(OC(C)(C)C(=O)O)cc1', '%', -16.082),
  ('CO[C@H]1/C=C/O[C@@]2(C)Oc3c(C)c(O)c4c(O)c(c(/C=N/N5CCN(C)CC5)c(O)c4c3C2=O)NC(=O)/C(C)=C\C=C\[C@H](C)[C@H](O)[C@@H](C)[C@@H](O)[C@@H](C)[C@H](OC(C)=O)[C@@H]1C', '%', -6.53),
  ('C[C@H]1[C@H]2CC[C@H]3[C@@H]4CC=C5C[C@@H](N(C)C)CC[C@]5(C)[C@H]4CC[C@]23CN1C', '%', -9.079),
  ('Cc1cc(OCC(=O)O)cc(C)c1Cc1ccc(O)c(C(C)C)c1', '%', -4.298),
  ('CCOC(=O)N1CCC(CN(Cc2ccc(Cl)cc2)Cc2ccc([N+](=O)[O-])s2)C1 (centres undefined)', '%', -2.29),
  ('CC(C)OC(=O)C1=CN(C(=O)c2ccc(F)c(F)c2)CC(C)(C)c2c1[nH]c1ccccc21 [TUROFEXORATE ISOPROPYL]', '%', -4.447),
  ('N[C@@H](Cc1cc(I)c(Oc2ccc(O)c(I)c2)c(I)c1)C(=O)O', '%', 142.376),
  ('CC1(C)CCC(C)(C)c2cc(NC(=O)c3ccc(C(=O)O)cc3)ccc21', '%', -36.8107),
  ('CC(C)(C[C@H]1CN(S(=O)(=O)c2cccc(C(F)(F)F)c2)c2cc(-c3cc(F)cc(OC(F)F)c3)ccc2O1)C(=O)O', '%', -13.5912),
  ('CN(CCOc1ccc(C[C@H](Nc2ccccc2C(=O)c2ccccc2)C(=O)O)cc1)c1ccccn1.O', '%', -1.212),
  ('Cc1cc(SCc2sc(-c3ccc(C(F)(F)F)c(F)c3)nc2C)ccc1OCC(=O)O', '%', -0.9501),
  ('CC(C)(Sc1ccc(CCN(CCCCC2CCCCC2)C(=O)NC2CCCCC2)cc1)C(=O)O', '%', -14.4765),
  ('CCO[C@H](COc1ccc(C(F)(F)F)cc1)CSc1ccc(OCC(=O)[O-])c(C)c1.[Na+]', '%', 0.706),
  ('Cc1cccc(CN2CCN(C(c3ccccc3)c3ccc(Cl)cc3)CC2)c1.Cl.Cl (centres undefined)', '%', 89.2215),
  ('COc1ccc(-c2ccc3cc(C(=O)O)ccc3c2)cc1C12CC3CC(CC(C3)C1)C2', '%', -16.1508),
  ('CC1(C)C(=O)C(C)(C)c2cc(C(=O)Nc3ccc(C(=O)O)cc3)ccc21', '%', -15.7037),
  ('Clc1ccc(-c2nc3sccn3c2/C=N/OCc2ccc(Cl)c(Cl)c2)cc1', '%', -153.599),
  ('COc1ccc(OC(=O)N(CC(=O)O)Cc2ccc(OCCc3nc(-c4ccccc4)oc3C)cc2)cc1', '%', 84.7945),
  ('C[C@H](CCOc1cccc(CC(=O)O)c1)N(Cc1cccc(C(F)(F)F)c1Cl)CC(c1ccccc1)c1ccccc1.Cl', '%', -13.5866),
  ('CCCCc1oc2ccccc2c1C(=O)c1cc(I)c(OCCN(CC)CC)c(I)c1.Cl [AMIODARONE HYDROCHLORIDE]', '%', -399.679),
  ('O=C(O)CCCc1cc2cc(Cl)ccc2n1S(=O)(=O)c1ccc2ncsc2c1', '%', -95.7021),
  ('CC(C)c1ccc(CC(=O)N2CCC[C@@H](c3cccc(OC(C)(C)C(=O)O)c3)C2)cc1', '%', 2.269),
  ('OC(c1ccc(-c2ccc(CN3CCN(Cc4ccncc4)CC3)cc2)c(F)c1)(C(F)(F)F)C(F)(F)F', '%', -2.122),
  ('CN1CCN(c2ccc(/C=C(\C#N)c3ccccc3Br)cc2)CC1.Cl.Cl', '%', -7.74),
  ('O=C(NCCS(=O)(=O)c1ccc(C(F)(F)F)cn1)c1ccc(Cl)cc1', '%', -3.2973),
  ('CCCc1c(OCCCOc2ccc(OCC(=O)O)cc2)ccc(C(C)=O)c1O', '%', -6.598),
  ('CC(=O)Nc1nc(C)c(S(=O)(=O)Nc2ccc(C(O)(C(F)(F)F)C(F)(F)F)cc2)s1', '%', 4.3226),
  ('O=S(=O)(Nc1ccc(C(O)(C(F)(F)F)C(F)(F)F)cc1)c1cccs1', '%', 37.5142),
  ('CC1(C)CCC(C)(C)c2cc(C(=O)Nc3ccc(C(=O)O)cc3)ccc21', '%', -16.8061),
  ('Cl.O=C(O)Cc1cccc(OCCCN(Cc2cccc(C(F)(F)F)c2Cl)CC(c2ccccc2)c2ccccc2)c1', '%', -4.945);
